Cited source: paper PMC11494653

System: Bacillus subtilis ATCC 6051
Test: microbe, parasite or virus in culture
Format: cell-based
Conditions: ATCC 6051, 16 h
Positions of bridges follow the written chain, without caps; N, C: chain ends. Non-standard residues stand in square brackets, D forms with d. Residues, ends and D or L forms follow the SMILES beside them. Chains are numbered I, II in the order given. d(aIle) = CC[C@H](C)[C@@H](N)C(=O)O; NMeF = CN[C@@H](Cc1ccccc1)C(=O)O; dNMeF = CN[C@H](Cc1ccccc1)C(=O)O; Nphe = O=C(O)CNCc1ccccc1
reportedEndpoint: MIC Bacillus subtilis ATCC 6051

Worked cases, answers included:
Record summary for CC[C@H](C)[C@H](NC(=O)[C@@H](Cc1ccccc1)NC)C(=O)N[C@@H](CO)C(=O)N[C@H](CCC(N)=O)C(=O)N[C@@H](C(=O)N[C@H](C(=O)N[C@@H](CO)C(=O)N[C@H]1C(=O)N[C@@H](C)C(=O)N[C@@H](CCCCN)C(=O)N[C@@H]([C@@H](C)CC)C(=O)O[C@H]1C)[C@@H](C)CC)[C@@H](C)CC [compound 1, Lys10-teixobactin] (H-[dNMeF]IS[dQ][d(aIle)]IS[dT]AKI; ester 8-C) : reported MIC Bacillus subtilis ATCC 6051 = ≤0.0313 µg/mL

Record summary for CC[C@H](C)[C@H](NC(=O)[C@H](CCC(N)=O)NC(=O)[C@H](Cc1ccccc1)NC)C(=O)N[C@@H](CO)C(=O)N[C@H](C(=O)N[C@@H](CCC(N)=O)C(=O)N[C@H](C(=O)OC[C@H](N)C(=O)N[C@H]1C(=O)N[C@@H](C)C(=O)N[C@@H](CCCNC(=N)N)C(=O)N[C@@H]([C@@H](C)CC)C(=O)O[C@H]1C)[C@@H](C)CC)[C@@H](C)CC [compound 9] (I: H-[NMeF]QISIQI / II: H-S[dT]ARI; ester I:C-II:1, II:2-II:C) : reported MIC Bacillus subtilis ATCC 6051 = >32 µg/mL

Record summary for CC[C@H](C)[C@H](NC(=O)[C@H](Cc1ccccc1)NC)C(=O)N[C@@H](CO)C(=O)N[C@H](C(=O)N[C@@H](CCC(N)=O)C(=O)N[C@H](C(=O)OC[C@H](N)C(=O)N[C@H]1C(=O)N[C@@H](C)C(=O)N[C@@H](CCCCN)C(=O)N[C@@H]([C@@H](C)CC)C(=O)O[C@H]1C)[C@@H](C)CC)[C@@H](C)CC [compound 4] (I: H-[NMeF]ISIQI / II: H-S[dT]AKI; ester I:C-II:1, II:2-II:C) : reported MIC Bacillus subtilis ATCC 6051 = ≥32 µg/mL

// below: MIC Bacillus subtilis ATCC 6051 requested for another compound
Record summary for CC[C@H](C)[C@H](NC(=O)CNCc1ccccc1)C(=O)N[C@@H](CO)C(=O)N[C@H](C(=O)N[C@@H](CCC(N)=O)C(=O)N[C@H](C(=O)OC[C@H](N)C(=O)N[C@H]1C(=O)N[C@@H](C)C(=O)N[C@@H](CCCCN)C(=O)N[C@@H]([C@@H](C)CC)C(=O)O[C@H]1C)[C@@H](C)CC)[C@@H](C)CC [compound 5] (I: H-[Nphe]ISIQI / II: H-S[dT]AKI; ester I:C-II:1, II:2-II:C) : reported MIC Bacillus subtilis ATCC 6051 = 32 µg/mL
